Cited source: patent US20190241669A1

Biological target: Human BCMA (human) (UniProt Q02223)
Experiment: SPR, IgG immobilised, huBCMA analyte, 37 C
# T½ per record follows
Give the value in min but do not write min after it.

>>> value_measured("L3.PY/L1.FF/H3.AQ (antibody, V domains shown, IgG) VH: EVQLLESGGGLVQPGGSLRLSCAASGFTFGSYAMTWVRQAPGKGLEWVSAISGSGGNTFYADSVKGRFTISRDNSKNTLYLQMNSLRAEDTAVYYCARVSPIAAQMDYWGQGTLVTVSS VL: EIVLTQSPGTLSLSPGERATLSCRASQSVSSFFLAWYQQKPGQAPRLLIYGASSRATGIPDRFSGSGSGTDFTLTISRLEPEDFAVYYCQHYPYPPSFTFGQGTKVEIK")
7.51
>>> value_measured("L3.PY/L3.KY/H3.YA (antibody, V domains shown, IgG) VH: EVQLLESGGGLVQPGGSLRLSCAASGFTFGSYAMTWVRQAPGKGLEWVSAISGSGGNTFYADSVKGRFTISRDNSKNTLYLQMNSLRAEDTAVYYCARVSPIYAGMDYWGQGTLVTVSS VL: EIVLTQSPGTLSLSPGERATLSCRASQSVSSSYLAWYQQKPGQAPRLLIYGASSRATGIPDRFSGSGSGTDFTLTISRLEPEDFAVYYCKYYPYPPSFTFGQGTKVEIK")
12.7

query: Which T½ reading was recorded for the binder L3.PY/L3.KY/H2.DY (antibody, V domains shown, IgG) VH: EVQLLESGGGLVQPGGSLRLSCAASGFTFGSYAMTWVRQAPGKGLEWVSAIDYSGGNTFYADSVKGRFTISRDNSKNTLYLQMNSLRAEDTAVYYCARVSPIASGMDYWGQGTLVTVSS VL: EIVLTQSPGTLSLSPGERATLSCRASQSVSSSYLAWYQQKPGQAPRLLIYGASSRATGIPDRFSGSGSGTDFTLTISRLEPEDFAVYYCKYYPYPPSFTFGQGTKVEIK ?
result: 18
